# TESTED_TARGET: Serotonin (5-HT) receptor (Rattus norvegicus) (UniProt P35563+P35365+P32305+P31388+Q9JJ16+P28564+P30994+Q62758+P08909+P14842+P30940+P35364+P19327+P28565)
# ASSAY: Evaluated for receptor mediated feedback inhibition of 5-HTP formation in hemisphere of rat brain when administered subcutaneously
# Assay type: functional
READOUT_TYPE: log10 of ED50 (log10 of the value in µmol/kg)
For clarity, the numbers are log10 values of ED50 expressed in µmol/kg.

Some solved cases for reference:
CCCN(CCC)C1CC1c1cccc(O)c1 (single isomer, unassigned; (-))    -0.46
CCN(CC)C1CC1c1cccc(O)c1 (configuration not stated)    -0.40
CCCN(CCC)C1CC1c1ccccc1O (single isomer, unassigned; (-))    -0.42
CCCN(CCC)C1CC1c1cccc(OC)c1 (configuration not stated)    0.16

Here are 4 compounds. What values of log10 of ED50 were reported for them?
1. CCCN(CCC)C1CC1c1ccccc1OC (configuration not stated)
2. CCCN(CCC)C1CC1c1ccccc1O (stereo in doubt; 8)
3. CCCN(CCC)C1CC1c1cccc(O)c1 (stereo in doubt; 18)
4. CN(C)C1CC1c1ccccc1O (configuration not stated)

Response given:
[-0.14, -0.44, -0.24, 0.97]

# return log10 of ED50 for each item in the list
1. CCCN(CCC)[C@@H]1CCc2cccc(O)c2C1
2. CN(C)C1CC1c1cccc(O)c1 (configuration not stated)
3. CCN(CC)C1CC1c1ccccc1O (configuration not stated)

Response given:
1: -1.11; 2: 1.40; 3: -0.10
